- Test system: PC-3 prostate
- test.description: NCI-60 one-dose screen, 48 h (100 = growth as untreated, 0 = no growth, -100 = all killed)
- condition.summary: 10 µM unless noted
About 83,000 compounds went through this panel and 20% of them were active in at least one assay; those are over-represented in the sample as a whole. The source made the active and inactive calls. Rule for the calls: active = growth percent below 10; inactive = the rest.
measured.metric: growth

* O=C([O][Hg][CH2]C1OCCOC1[CH2][Hg][O]C(=O)c1ccccc1)c1ccccc1 (stereo unspecified) | 70.5% (inactive)
* CCc1ccccc1[C@@H]1C[C@]2(C)CCO[C@@H]2OO1 | 100% (inactive)
* COc1cc2c(cc1OCCCn1c(-c3ccccn3)nc3ccccc31)N=C[C@@H]1CCCN1C2=O | 12.8% (inactive)
* CC[C@H](C)[C@@H]1OC(=O)C(C)(C)[C@H](O)[C@H](Cc2ccccc2)OC(=O)[C@H](C(C)C)OC(=O)[C@@H](NC(=O)c2cccc(NC=O)c2O)[C@@H](C)OC1=O | 43.9% (inactive)
* COC(=O)[C@@H](C[C@H](Cc1ccccc1)NC(=O)c1csc([C@@H](C[C@H](C(C)C)N(C)C(=O)[C@@H](NC(=O)[C@H]2CCCCN2C)C(C)C)OC(C)=O)n1)NC(=O)OCc1ccccc1 | 32.2% [9.5 µM] (inactive)
* CN[C@]1(c2ccccc2Cl)CCCC[C@H]1NCCCN1CCN(C)CC1 | 91.5% (inactive)

---

- System: NCI-H322M lung
- test.description: NCI-60 one-dose screen, 48 h (100 = growth as untreated, 0 = no growth, -100 = all killed)
- condition.summary: 10 µM unless noted
- Experimental: Growth inhibition of the NCI-H322M human Non-Small Cell Lung tumor cell line is measured as a screen for anti-cancer activity. Cells are grown in 96 well plates and exposed to the test compound for 48 hours. Compounds are tested at a single concentration, which is 10^-5 M for most compounds. The reported endpoint is percent growth (GI% or GIPRCNT), where numbers from 0 - 100% represent growth inhibition, and numbers from -100% - 0 represent cell death. […]
The panel holds about 83,000 compounds, 20% with a hit somewhere; the sample as a whole holds those more often.
measured.metric: growth (%)

- O=C(CC1(O)C(=O)Nc2ccc(Cl)cc21)c1ccc(C(=O)NCC2CCC3(CC2)OOC2(CCCCC2)OO3)cc1 (centres undefined): 77.7
- CCCCCCCC(=O)OCC(=O)[C@]1(O)Cc2c(O)c3c(c(O)c2[C@@H](OC2CC(N)C(O)C(C)O2)C1)C(=O)c1c(OC)cccc1C3=O (some centres undefined): -72.8
- O=[N+]([O-])CC(O)C(Cl)(Cl)Cl (centres undefined): 103
- CCC(C)(C)[C@H](NC(=O)[C@H]1CCCCN1C)C(=O)N(C)[C@H](C[C@@H](OC(C)=O)c1nc(C(=O)N[C@@H](Cc2ccccc2)C[C@H](C)C(=O)O)cs1)C(C)C: 41.5

---

growth reference
- System: OVCAR-3 ovarian
- test.description: NCI-60 one-dose screen, 48 h (100 = growth as untreated, 0 = no growth, -100 = all killed)
- condition.summary: 10 µM unless noted
The panel holds about 83,000 compounds, 20% with a hit somewhere; the sample as a whole holds those more often.
measured.metric: growth (%)

* COC(=O)[C@@H](C)C[C@H](Cc1cn(C)c2ccccc12)NC(=O)c1csc([C@@H](C[C@H](C(C)C)N(C)C(=O)[C@@H](NC(=O)[C@H]2CCCCN2C)C(C)C)OC(C)=O)n1 | -11
* CCC(C)(C)[C@H](NC(=O)[C@H]1CCCCN1C)C(=O)N(C)[C@H](C[C@@H](OC(C)=O)c1nc(C(=O)N[C@@H](Cc2ccccc2)C[C@H](C)C(=O)O)cs1)C(C)C | 5.97
* ClCCN(CCCl)c1ccc(/C=N/Nc2ncnc3nc[nH]c23)cc1 | 98.5
* O=[N+]([O-])/C=C\c1ccc(Cl)c(Cl)c1 | 44.6
* OCCCCCNC1CCCCC1 | 125
* CC(=O)O[C@H](C[C@H](C(C)C)N(C)C(=O)[C@@H](NC(=O)[C@H]1CCCCN1C)C(C)C)c1cccc(C(=O)N[C@@H](Cc2ccccc2)C[C@H](C)C(=O)O)n1 | -50.3

The values you see were collected from PubChem BioAssay (NCI).
